From: ChEMBL document CHEMBL4689842

test system: U2OS; experiment: Multiplex assay against U2OS; format: toxicity, cell-based; settings: human, 48 h, 1 µM, compound concentration 1 uM, replicate 1
This section presents compounds with their documented Population Tubulin-Different-Phenotype (%) values.
attribute.measured: Population Tubulin-Different-Phenotype (%)

{"compound": "C[C@@H](NCCCc1cccc(C(F)(F)F)c1)c1cccc2ccccc12.Cl [CINACALCET HYDROCHLORIDE]", "obs.value": 16}
{"compound": "CN1CCC[C@@H]1CCO[C@](C)(c1ccccc1)c1ccc(Cl)cc1.O=C(O)/C=C/C(=O)O [CLEMASTINE FUMARATE]", "obs.value": 6}
{"compound": "COc1cccc([C@@H](C)NCCCc2ccccc2Cl)c1.Cl [TECALCET HYDROCHLORIDE]", "obs.value": 14}
{"compound": "OC1(c2ccc(Cl)cc2)CCN(Cc2c[nH]c3ccccc23)CC1", "obs.value": 8}
